// reported EC50 per item
# target-desc: T1, 小鼠结合素-4 (mouse Nectin-4) (mouse, UniProt Q8R007 31-508)
# T1 construct: Transiently expressed on 293T cells; also called NP_082169.2
# T1 sequence: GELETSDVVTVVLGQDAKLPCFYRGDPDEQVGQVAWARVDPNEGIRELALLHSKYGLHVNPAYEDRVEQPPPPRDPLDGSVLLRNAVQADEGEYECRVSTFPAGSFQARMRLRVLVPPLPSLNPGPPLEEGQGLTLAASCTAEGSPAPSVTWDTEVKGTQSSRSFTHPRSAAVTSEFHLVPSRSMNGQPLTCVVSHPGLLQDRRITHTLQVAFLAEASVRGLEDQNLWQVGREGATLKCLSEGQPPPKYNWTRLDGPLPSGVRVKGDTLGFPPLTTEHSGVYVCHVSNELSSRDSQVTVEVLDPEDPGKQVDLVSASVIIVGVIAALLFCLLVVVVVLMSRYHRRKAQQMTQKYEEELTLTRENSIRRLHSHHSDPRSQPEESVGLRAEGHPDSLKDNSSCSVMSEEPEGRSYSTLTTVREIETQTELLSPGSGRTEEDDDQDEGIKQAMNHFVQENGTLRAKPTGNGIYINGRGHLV
# experiment-notes: flow cytometry on transiently transfected 293T cells; ++ = EC50 5nM to 25nM

Consider the reported EC50 for these binders:
{"binder": "N4_mAb 8 (antibody, V domains shown, Murine variable regions) VH: QVQLQQSGPVLVKPGASVRISCKASGYTFTSYYIHWVKQRPGQGLEWIGWIYPGNVNTKYNENFRDKATLTADKSSSTSYMQLSSLTSEDSAVYFCARGIYYFDYWGQGTTLTVSS VL: IIVMTQTPKFLLVSAGDRVTITCKASQSVNNDVAWYQEKPGQSPKLLIYYASNRDTGVPDRFTGSGYGTDFTFTISTVQAEDLAVYFCHQDYSSPFTFGSGTKLEIK", "EC50": "5 to 25 nM"}
{"binder": "N4_mAb 7 (antibody, V domains shown, Murine variable regions) VH: QVQLQQSGPELVKPGASVKMSCKASGYTFTTYYIHWVKQRPGQGLEWIGWIYPGNAGIKSNEKFKGKTTLTADKSSSTAYMLLSSLTSEDSAIYFCARGVYFFDYWGQGTTLTVSS VL: SIVMTQTPKFLLVSAGDRVTITCKASQSVNNDVSWFQQKPGQSPKLLIYYASNRYTGVPDRFSGSGYGTDFTFTITTVQAEDLAVYFCQQDYSSPYTFGGGTKLEIK", "EC50": "5 to 25 nM"}

# input Need EC50, item N4_mAb 6 (antibody, V domains shown, Murine variable regions) VH: QVQLQQSGPELVKPGASVRISCKASGYTFTTYYIHWVKQRPGQGLEWIGWIYPGNVNTKYTENFKDKATLTADKSSSTAYMQLSSLTSEDSAVYFCARGLYYFDFWGQGTTLTVSS VL: SIVMTQTPKFLLVSAGDRVTITCKASQSVNNDVAWYQQKPGQSPKLLIYYASNRDTGVPDRFTGSGFGTDFTFTISSVQAEDLAVYFCQQDYSSPYTFGGGTKLEIK
# output 5 to 25 nM
